# experimental details: yeast display, Sf9 membrane polyspecificity reagent, FACS + sequencing; frameworks hold sequencing errors
observation type: polyreactivity (PSR sort gate)

>  <sequence data>
QVQLVESGGGLVQAGGSLRLSCAASGFIFSNNAMGWYRQAPGKERELVAAITASGGRTYYADSVKGRFTISRDNAKNTVYLQMNSLKPEDTSVYYCAAALYDIMGYWGQGTQLTVSS

>  <observation type>
polyreactivity (PSR sort gate)

>  <result>
high polyreactivity

$$$$
>  <sequence data>
QVQLVESGGGLVQAGGSLRLSCAASGRTFQKNTMGWYRQARGKEMQLVAAIDFSATTTYYADSVKGRFTISRDNAKNTVYLQMNSLKPEATAVYYCAARWSYPRWELDYWGQGTQVTVSS

>  <observation type>
polyreactivity (PSR sort gate)

>  <result>
high polyreactivity

$$$$
>  <sequence data>
QVQIVESGGGLVQAGGSLRLSCAASGRILWDYAMGWYRQATGKEWELVAAIDWSAGSTYYADSVKGRFTISRDTAKNTVYLQMNSLKPEDTAVYYCYIDYTYYYEDDFWGQGTQVTVSS

>  <observation type>
polyreactivity (PSR sort gate)

>  <result>
low polyreactivity

$$$$
>  <sequence data>
QVQLVESGGGLVQAGGSLRLSCAASGRIFHFYAMGWYRQAPGKERELVAAITSRTGNTYYADSVKGRFTISRDNAKNTVYLQMNSLKPEDTAVYYCAAKLVNALLHYRNWNHINYWGQGTQVTVSS

>  <observation type>
polyreactivity (PSR sort gate)

>  <result>
low polyreactivity

$$$$

Would you kindly look at the next entry?
Q) Record request: polyreactivity (PSR sort gate) value, item `QVQLVESGGGLVQAGGSLRLSCAASGRTFVWNAMGWYRQAPGKERELVAAISSSGGSTYYADSVKGRFTISRDNAKNTVYLQMNSLKPEDTAVYYCAARRASGFDWGQGTQVTVSS`
A) high polyreactivity

====

# experimental details: yeast display, Sf9 membrane polyspecificity reagent, FACS + sequencing; frameworks hold sequencing errors
observation type: polyreactivity (PSR sort gate)

Field: example entries. Status: answers known.
>  <sequence data>
QVQLVESGGGLVQAGGSLRLSCAASGSTFVYNAMGWYRQAPGKERELVAAITVSDGSTYYADSVKGRFTISRDNAKNTVYLQMNSLKPEDTAVYYCNADFPRKTRYEYWGQGTQVTVSS

>  <polyreactivity (PSR sort gate)>
low polyreactivity

$$$$
>  <sequence data>
QVQLVESGGGLVQAGGSLRLSCAASGFIIDSYAMGWYRQAPGKERELVATITKGGGRTYYADSVKGRFTISRDNAKNTVYLQMNSLKPEDTAVYYCNARGFSRRKGLDYWGQGTQVTVSS

>  <polyreactivity (PSR sort gate)>
low polyreactivity

$$$$
>  <sequence data>
QVQLVESGGGLVQAGGSLRLSCAASGFTFTSNAMGWYRQAPGKEREFVADISNIGGDTTYADSVKGRFTISRDNAKNTVYLQMNSLKPEDTAVYYCKADFAFIENDYWGQGTQVTVSS

>  <polyreactivity (PSR sort gate)>
low polyreactivity

$$$$
>  <sequence data>
QVQLVETGGGLVQAGGSLRLSCAASGSIFWYYAMGWYRQAPGKERELVAAISAYGSSTYYADSVKGRFTISRDNAKNTVYLQMNSLKPEDTAVYYCAATYILYNDWLYHYFPEEYDYWGQGTQVTVSS

>  <polyreactivity (PSR sort gate)>
low polyreactivity

$$$$
>  <sequence data>
QVQLVESGGGLVQAGGSLRLSCAASGRIFRAYAMGWYRQAPGKERELVASITGSGGSTYYADSVKGRFTISRDNAKNTVYFQMNILKPEDTAVYYCAVASYRVWGVGTRYYYWGQGTHVTVSS

>  <polyreactivity (PSR sort gate)>
high polyreactivity

$$$$
>  <sequence data>
QVQLVESGGGLVQAGGSLRLSCAASGRIFSHYDLGWYRQAPGKEREVVAAISSGGITYYADSVKGRFTISRDNAKNTVYLQRNSLKPEDTAVYYCAAVRRRGTTYDYWGQGTQVTVSS

>  <polyreactivity (PSR sort gate)>
high polyreactivity

$$$$

Q) Record request: polyreactivity (PSR sort gate) value, item `QVQLQESGGGLVQAGGSLRLSCAASGTIFRFRYMGWHRQAPGKERELVAGINGGTTTYYADSVIGRFTISRVNAKNTVYLQMKSLKPDDTAVYNCAAGASRLTYYDYWGQGTQVTVSS`
A) low polyreactivity

Q) And the next one, `QVQLVESGGGKVQAGGSLRLSCAASGRTFRWYAMGWYRQAPGKERELVAAITSSSSTNYADSVKGRFTISRDNAKNTVYLQMNSLKPEDTAVYYCAKGWNWYDLGESGYWGQGTQVTVSS` ?
A) low polyreactivity

Q) And the next one, `QVQLVESGGGLVQAGGSLRLSCAASGFIFTWYAMGWYRQAPGKEREVVAGISRSGGRTYYADSVKGRFTISRDNAKNTVYLQMNSLKPEDTAVYYCNAVLVGYRPYREFDHWGQGTQVTVSS` ?
A) high polyreactivity

Q) And the next one, `QVQLVESGGGLVQAGGSLRLSCAASGLICTPYAMGWYRQSPGKERELVAAISVSGGRTYYADSVKGRFTISRDNAKNTVYLQMNSLKREDTAVYYCAAALPYGYEYWGQGTQVTVSS` ?
A) high polyreactivity

Q) And the next one, `QVQLVESGGGLLHAGGSLRLSCAASGRTFPSYAMGWYRQAPGKERELVAAISSRGSRTYYADSVKGRFTISRDNAKNTVYLQMYSLKPEDTAVYYCAAKNLWTRKSRYDYWGQGTQVTVSS` ?
A) high polyreactivity

====

# experimental details: yeast display, Sf9 membrane polyspecificity reagent, FACS + sequencing; frameworks hold sequencing errors

>  <sequence data>
QVQHVESAGGLVQAGGSLRLSCSASGSIFYFYAMGWSRQAPGKERELVATITSSGSTNYADSVKGRFTISRDNAKNTVYLQMNSLKPEDTAVYYCNVDVISLKPYVSSYFAIKYDYWGQGTQVTVSS

>  <polyreactivity (PSR sort gate)>
low polyreactivity

$$$$
>  <sequence data>
QVQLVESGGGLVQAGGSLRLSCAASGRIFWRYAMGWYRQAPGKERELVAAITGRTGSTNYADSVKGRFTISRDNAKNTVYLQMNSLKPEDTAVYYCAAAHHRWTGLYPSGYEFDYWGQGTQVTVSS

>  <polyreactivity (PSR sort gate)>
low polyreactivity

$$$$
>  <sequence data>
QLQLVESGGGLVQAGGSLRLSCAASGSTLSDNAMGWYRQAPAKERELVASISWSGGTYYADSVKGRFTISRDNANNTVYLQMNSLKPEDTAVYYCAAYIYYNYSRQYWYDYWGQGTQVTVSS

>  <polyreactivity (PSR sort gate)>
low polyreactivity

$$$$
>  <sequence data>
QVQLVESGGGLVQAGGSLRLSCAASGRTFYYYAMGWYRQAPGKERELVAGIDFSSGSTYYADSVKGRFTISRDNAKNTVYLQMNSLKPEDTAVYYCAAKWHVRGRGARYRYDYDYWGQGTQVTVSS

>  <polyreactivity (PSR sort gate)>
low polyreactivity

$$$$

====

# experimental details: yeast display, Sf9 membrane polyspecificity reagent, FACS + sequencing; frameworks hold sequencing errors
observation type: polyreactivity (PSR sort gate)

>  <sequence data>
QVQLVESGGGLVQAGGSLRLSCAASGSIFSRYAMGWYRQAPGKERELVAAITSSGTSTYYADSVKGRFTISRDNAKNTVYLQMNSLKPEDTAVYYCAAAFRQRTSRFDYWGQGSQVTVSS

>  <polyreactivity (PSR sort gate)>
high polyreactivity

$$$$
>  <sequence data>
EEELVESGGGLVQAGVSLRISCAASGSIFNYNAMGWYRQAPGKERELVAAISRGGTTNYADSVKGRFTISRDNANNTVYLQMNSLKPEDTAVYYCAAKAYDYYGPVYYWGQGSQVTVSS

>  <polyreactivity (PSR sort gate)>
high polyreactivity

$$$$
>  <sequence data>
QVQLVESGGGLVQAGGSLRLSCAASGFTFRYYVMGWSRQAPGKESELVAAICWSGGSTYYADSVKVRFTISRDNAKNTVYLQMNRLKPEDTAFYYCNARRYFRTSQQPLYDYWGQGTQVTVSS

>  <polyreactivity (PSR sort gate)>
high polyreactivity

$$$$
>  <sequence data>
QVQLVESGGGLVQAGGSLRLICAASGRIFGYYAMGWYRQAPGKERELVATITFGGGSSYYADSVKGRFTISRDNAKNTVNLQMNSLKPEDTAVYYCAAVSGYLGIYGDEYSWGQGTQVTVSS

>  <polyreactivity (PSR sort gate)>
low polyreactivity

$$$$
>  <sequence data>
QVQLVESGGGLVQAGGSLRLSCAASGSTFPFYAMGWYRQAPGKERELVAAITSGGSTYADSVKGRFTITRDNAKNTVYLQMNSLKPEDTSVYYCAASWPRWWRFGYWGQGTQVNVSS

>  <polyreactivity (PSR sort gate)>
low polyreactivity

$$$$
>  <sequence data>
QVQLVESGGGLVQAGGSLRLSCAASGNTFGTYVMGWYRPAPGKERELVAAISQSGGSTDYADSVKGRFTISRDNAKKTVYLQMNSLKPEDTAVYYCAKVTWGTVWYRSPSEYDYWGQGTQVTVSS

>  <polyreactivity (PSR sort gate)>
low polyreactivity

$$$$
>  <sequence data>
QVQHVESGGGLVQAGGSLRLSCAASGRTFYRNAMGWYRPAPGKERELVAAISWSGGRTFYADSVKGRFTISRDNAKNTVYLQMNSLKPEDTAVYYCAKTYTTPGYYRYDYWGKGTQVTVSS

>  <polyreactivity (PSR sort gate)>
high polyreactivity

$$$$
>  <sequence data>
QVQLVESGGGLVQEGGSLGLSCAASGFIFVRYAMGWYRQAPGKERELVATITRGGGTYYADSVKARFTISRDNAKNTVYLQMKRLKPVDTAVYYCNKRGYSRYTGFGLDSWGQGTQVTVSS

>  <polyreactivity (PSR sort gate)>
high polyreactivity

$$$$

Q) Record request: polyreactivity (PSR sort gate) value, item `QVQLVESGGGLVQAGGSLRLSCAASGGIFRGYAMGCYRQAPGKERELVATITFSGTSTYYADSVKGRFTISRDNAKNTVYLQMNSLKPEDTAVYYCNADWWFKYDYWGQGTQVTVSS`
A) low polyreactivity

Q) And the next one, `QVQLQQSVGGLVQAGGSLRLSCAASGNIFPTDRMGWYRQAPGKELEFVATISHGGRTNYADSVKGRFTISRDNATNTVYLQMNRLKPEDTAVYFCAVWSLGRWRHYYWGQGSQVTVSS` ?
A) low polyreactivity

Q) And the next one, `QVQLVETGGGVVQAGGSLRLSCAASGRTFGFNAMGWYIQAPGKERELVASITSTGGRTYYADSVKGLFTISRDNAKNTVYLQMNCLKPEDTAVYYCAAGSRSRAPYYRTIVDTYGYWGQGTQVTVSS` ?
A) low polyreactivity

Q) And the next one, `QVQLVESGGGLVQAGGSLRLSCAASGRTFYLYAMGWYRQAPGKERELVAAITSAGSTNYADSVKGRFTISRDNAKNTVYLQMNSLKPEDSAVYYCNAYKRGYLYRYNYWGQGTQVTLSS` ?
A) high polyreactivity

Q) And the next one, `QVQLVESGGGLVQAGGSLRLSCAASGIIFGQNALGWYRQAPGKEREVVAAITISGGSTYYSDSVKGRFTISRDNAKNTVYLQMNSLKPEDTAVYYCAAEWYYVYIAPYDYWGQGTQVTVSS` ?
A) low polyreactivity

Q) And the next one, `QVQLVESGGGLVQAGGSLRISCAASGFTFSAYAMGRYRQAPGKERELVAAISWSGSRTYYADSVKGRFTISRDNAKNTVYLQMNSLKPEDTAVYYCAKEPYDTFGFYEYDYWGQGTQVNVSS` ?
A) low polyreactivity

Q) And the next one, `QVQLVESGGGLVQAGGSLRLSCAASGFTFEFNVMGWYRQAPGKERELVASIRWGSTSYADSVKGRFTISRDNAKNTVYLQMNSLKPEDTAVYYCAADRSTGLGDDDYWGQGTQVTVSS` ?
A) low polyreactivity

Q) And the next one, `QVQLVESGGGLVQAGGSLRLSCAASGSIFVVYAMGWYRQAPGKERELVAGISDGDNTNYADSVKGRVTISRDNAKNTVYLQMNSLKPEDTAVYYCNADGTSRNLEGFDYWGQGTQVTVSS` ?
A) low polyreactivity

Q) And the next one, `QVQLVESGGGLVQAGGSLRLSCAASGFTFSYYAMGWYRKAPGKEMELVAAINWNGGSTYYADSVKGRFTISRDNAKNTVYLQMNSLKPEDTAVYYCNARQSYRYTQHGYWGQGTQVTVSS` ?
A) high polyreactivity

Q) And the next one, `QVQLVESGGGLVQAGGSLRLSCAASGRIFVYYAMGWYRQAPGKERELVAAITYSVDSTYYADSVKGRFTISRDNAKNTVYLQKNSLKPEDTAVYYCATDVDWAYGYQYEDWGQGTQVPVSS` ?
A) low polyreactivity
